# test: chemical genetic growth profiling, strain panel (AID 1159580);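 further: tested at 20 µM; growth read once vehicle control cultures reached saturation at 30 °C; 1 = growth at the plate median or of vehicle wells; lower values mean less growth of the strain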
# condition-set: S. cerevisiae deletion strains, growth OD, locus YDR388W, hits give low values
Out of some 5,500 compounds screened, about 2,000 (36%) were called active. Roughly 18% stayed inconclusive and do not appear here. The list shows a part of the results.
quantity: normalized growth

The following compounds have reported results that may help.
Consider the compound shown here: COP(=S)(OC)Oc1ccc(SC)c(C)c1 What is its recorded normalized growth?
0.991 (inactive)

Record: CC(=O)C1=C(O)C2C3c4c[nH]c5cccc(c45)CC3C(C)(C)N2C1=O (stereo not given)
1 (inactive)

Record: NCc1ccc(S(N)(=O)=O)cc1
0.993 (inactive)

Record: CCCCC(CC)CN=C(N)NC(N)=NCCCCCCN=C(N)NC(N)=NCC(CC)CCCC (stereo not given)
0.0558 (active)

Record: S=c1[nH]c2ccccc2s1
0.987 (inactive)

---
Consider the compound shown here: CC(COc1ccccc1)N(CCCl)Cc1ccccc1 (stereo not given) What is its recorded normalized growth?
1.02 (inactive)

Record: C=CC1=C(C)/C(=C/c2[nH]c(Cc3[nH]c(/C=C4\NC(=O)C(C)=C4C=C)c(C)c3CCC(=O)O)c(CCC(=O)O)c2C)NC1=O
1.02 (inactive)

Record: COC(=O)[C@H]1[C@H]2C[C@@H]3c4[nH]c5cc(OC)ccc5c4CCN3C[C@H]2C[C@@H](OC(=O)c2cc(OC)c(OC)c(OC)c2)[C@@H]1OC
1.01 (inactive)

Record: NCCCCN=C(N)N
0.976 (inactive)

Record: COc1ccccc1N1CCNCC1
1.03 (inactive)

Record: CC1CC2C(C(O)CC3(C)C2CCC3(O)C(=O)COC(=O)CCC(=O)O)C2(C)C=CC(=O)C=C12 (stereo not given)
0.997 (inactive)

Record: CCOP(=S)(OCC)Oc1ccc2c(C)c(Cl)c(=O)oc2c1
0.98 (inactive)

----------
Recorded measurements of normalized growth, one per entry
# test: chemical genetic growth profiling, strain panel (AID 1159580);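 further: tested at 20 µM; growth read once vehicle control cultures reached saturation at 30 °C; 1 = growth at the plate median or of vehicle wells; lower values mean less growth of the strain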
# condition-set: S. cerevisiae deletion strains, growth OD, locus YMR223W, strain ubp8, hits give low values
The whole screen tested about 5,500 compounds, of which about 2,000 (36%) were called active. Roughly 18% stayed inconclusive and do not appear here. The list shows a part of the results.
Lab note: write the figure by itself, no unit.

The following molecules have reported results that may help.
Consider the molecule shown here: CC1(C)CC2C1CCC1(C)OC2(C)CCC1O (stereo not drawn) What is its recorded normalized growth?
1.01

Record: COC(=O)[C@H]1[C@H]2C[C@@H]3c4[nH]c5cc(OC)ccc5c4CCN3C[C@H]2C[C@@H](OC(=O)c2cc(OC)c(OC)c(OC)c2)[C@@H]1OC
0.995

Next up:
Consider the molecule shown here: CC1=C(/C=C/C(C)=C/C=C/C(C)=C/C(=O)O)C(C)(C)CCC1 What is its recorded normalized growth?
1.02

----------
# test: chemical genetic growth profiling, strain panel (AID 1159580);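 further: tested at 20 µM; growth read once vehicle control cultures reached saturation at 30 °C; 1 = growth at the plate median or of vehicle wells; lower values mean less growth of the strain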
# condition-set: S. cerevisiae deletion strains, growth OD, locus YGR252W, strain gcn5, hits give low values
About 2,000 (36%) of roughly 5,500 compounds were called active. Roughly 18% stayed inconclusive and do not appear here. Some of the results follow.
quantity: normalized growth

Consider the compound shown here: CCN(CC)CCOC(=O)C(Cc1cccc2ccccc12)CC1CCCO1 (centres undefined) What is its recorded normalized growth?
1.02 (inactive)

Record: CC12CCC(CC1)C(C)(C)O2
1.04 (inactive)

Record: CCOC(=O)C1=C[C@]2(CC)CCCN3CCc4c(n1c1ccccc41)[C@@H]32
1.03 (inactive)

---
Consider the compound shown here: C=CC1=C(C)/C(=C/c2[nH]c(Cc3[nH]c(/C=C4\NC(=O)C(C)=C4C=C)c(C)c3CCC(=O)O)c(CCC(=O)O)c2C)NC1=O What is its recorded normalized growth?
0.99 (inactive)

These data points were gathered from PubChem BioAssay AID1159580.
